Ref: paper PMC12820563

Consider the following sequences; for each one, report its binding signal.
ASSAY_SYSTEM: MBP-FoxP3dN (Mus musculus, UniProt Q99JB6 188-423)
Sequence: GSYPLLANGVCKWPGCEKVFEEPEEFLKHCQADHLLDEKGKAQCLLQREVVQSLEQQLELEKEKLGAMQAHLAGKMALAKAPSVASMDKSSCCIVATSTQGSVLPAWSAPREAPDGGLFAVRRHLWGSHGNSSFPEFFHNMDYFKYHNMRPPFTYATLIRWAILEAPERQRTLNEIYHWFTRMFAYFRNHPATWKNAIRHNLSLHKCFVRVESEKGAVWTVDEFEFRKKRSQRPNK
ASSAY_TEXT: PD-seq (MBP pull-down with sequencing); 20 mM Tris-HCl pH 7.5, 100 mM NaCl, 1.5 mM MgCl2, 0.4 uM protein, 0.1 uM dsDNA library, 30 min, room temperature, amylose pull-down; high values mean tight binding
PROTOCOL_CONDITIONS: protein: recombinant; tags: His6-MBP; chain copies: 2; dsDNA, one strand shown
In all, about 16,000 sequences were measured (“rpm ratio (pull-down/input)”: median about 0.5, highest 2% from about 5.5 on). The sample holds the highest values, similar sequences and a random draw of the others, so the mix is not that of the screen.

Use the examples below as a reference point.
{"RESIDUE_CODES": "GATGATTGTTCTCCCAGCTGATGAATTATGTTCTTCGAGTAAACAAATTTTCCTAATCTTTCTGTTCAAGCGCCATCTAC", "binding signal": "1.3 RPM ratio (pull-down/input)"}
{"RESIDUE_CODES": "GATGATTGTTCTCCCAGCTGATGAATTATGTTGGTCGAGTAAACAAATTTTCCTAATCTTTCTGTTCAAGCGCCATCTAC", "binding signal": "6.57 RPM ratio (pull-down/input)"}
{"RESIDUE_CODES": "GATGATTGTTCTCCCAGCTGATGAATTGTGTGTATCGAGTAAACAAATTTTCCTAATCTTTCTGTTCAAGCGCCATCTAC", "binding signal": "6.39 RPM ratio (pull-down/input)"}
{"RESIDUE_CODES": "GATGATTGTTCTCCCAGCTGATGAATTTCTAATTTCGAGTAAACAAATTTTCCTAATCTTTCTGTTCAAGCGCCATCTAC", "binding signal": "0.301 RPM ratio (pull-down/input)"}

# ---- query sequence ----
**Q:** Name the reported binding signal value associated with the sequence `GATGATTGTTCTCCCAGCTGATGAATTTCTGTGTTCGAGTAAACAAATTTTCCTAATCTTTCTGTTCAAGCGCCATCTAC`
**A:** 0.716 RPM ratio (pull-down/input)

---

ASSAY_SYSTEM: MBP-FoxP3dN (Mus musculus, UniProt Q99JB6 188-423)
Sequence: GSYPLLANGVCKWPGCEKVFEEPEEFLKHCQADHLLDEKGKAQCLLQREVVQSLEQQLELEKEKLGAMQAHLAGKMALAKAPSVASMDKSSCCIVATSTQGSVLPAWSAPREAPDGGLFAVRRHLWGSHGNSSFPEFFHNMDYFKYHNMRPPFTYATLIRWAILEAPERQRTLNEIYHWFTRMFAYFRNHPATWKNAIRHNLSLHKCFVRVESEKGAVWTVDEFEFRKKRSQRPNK
ASSAY_TEXT: PD-seq (MBP pull-down with sequencing); 20 mM Tris-HCl pH 7.5, 100 mM NaCl, 1.5 mM MgCl2, 0.4 uM protein, 0.1 uM dsDNA library, 30 min, room temperature, amylose pull-down; high values mean tight binding
PROTOCOL_CONDITIONS: protein: recombinant; tags: His6-MBP; chain copies: 2; dsDNA, one strand shown
In all, about 16,000 sequences were measured (“rpm ratio (pull-down/input)”: median about 0.5, highest 2% from about 5.5 on). The sample holds the highest values, similar sequences and a random draw of the others, so the mix is not that of the screen.
MEASUREMENT_NAME: binding signal

Completed entries (count: 2):
{"RESIDUE_CODES": "GATGATTGTTCTCCCAGCTGATGAATTTAGTTACTCGAGTAAACAAATTTTCCTAATCTTTCTGTTCAAGCGCCATCTAC", "binding signal": "3.04 RPM ratio (pull-down/input)"}
{"RESIDUE_CODES": "GATGATTGTTCTCCCAGCTGATGAATTTGTTTGCTCGAGTAAACAAATTTTCCTAATCTTTCTGTTCAAGCGCCATCTAC", "binding signal": "7.54 RPM ratio (pull-down/input)"}

Give one value of binding signal per listed sequence.
1. GATGATTGTTCTCCCAGCTGATGAATTATTTTGCTCGAGTAAACAAATTTTCCTAATCTTTCTGTTCAAGCGCCATCTAC
2. GATGATTGTTCTCCCAGCTGATGAATTGGCGTCCTCGAGTAAACAAATTTTCCTAATCTTTCTGTTCAAGCGCCATCTAC
3. GATGATTGTTCTCCCAGCTGATGAATTTATTGACTCGAGTAAACAAATTTTCCTAATCTTTCTGTTCAAGCGCCATCTAC

**A:**
1: 0.946 RPM ratio (pull-down/input); 2: 1.06 RPM ratio (pull-down/input); 3: 5.75 RPM ratio (pull-down/input)
